- METHOD NOTES: Solubility in aqueous pH buffers and bio-relevant fluids at 37° C.
- Format: physicochemical
- CONDITIONS USED: thermodynamic from solid; FeSSIF-v1, pH 5.0, 37° C.
ATTRIBUTE MEASURED: solubility at 24 h
Please state the number and follow it with the unit.

Item: CCN(C)S(=O)(=O)Nc1ccc(F)c(Oc2ccc3ncn([C@H]4COC5(CCN(C(=O)CC6(O)CCN(c7cc8c(cc7F)c(N7CCC(=O)NC7=O)nn8C)CC6)CC5)C4)c(=O)c3c2)c1C#N [Compound 1 Form B] | solubility at 24 h: 6.7 µg/mL

---

- METHOD NOTES: Solubility in aqueous pH buffers and bio-relevant fluids at 37° C.
- Assay type: physicochemical
- CONDITIONS USED: simulated gastric fluid, thermodynamic from solid; SGF, pH 2.0, 37° C.
ATTRIBUTE MEASURED: solubility at 24 h (µg/mL)
// return numeric value only (unit: µg/mL, not printed)

Reported solubility at 24 h of CCN(C)S(=O)(=O)Nc1ccc(F)c(Oc2ccc3ncn([C@H]4COC5(CCN(C(=O)CC6(O)CCN(c7cc8c(cc7F)c(N7CCC(=O)NC7=O)nn8C)CC6)CC5)C4)c(=O)c3c2)c1C#N [Compound 1 Form B] : 5.2
